# tested target: Sentrin-specific protease 1 (Homo sapiens)
# procedure details: Inhibition of recombinant human SENP1 assessed as reduction in deSUMOylation of RanGAP1-SUMO1 at 5 uM using RanGAP1-SUMO1 as substrate preincubated for 10 mins followed by substrate addition and measured after 30 mins relative to control
# experimental context: time 40.0 min
parameter: inhibition (%)

Sample records with inhibition:
C[C@H]1[C@H](C)CC[C@]2(C)CC[C@]3(C)C(=CC[C@@H]4[C@@]5(C)CC[C@@H](O)[C@](C)(C(=O)O)[C@@H]5CC[C@]43C)[C@H]12 :: 3.9
C[C@@H]1CC[C@]2(C(=O)O)CC[C@]3(C)C(=CC[C@@H]4[C@@]5(C)C[C@H](O)[C@H](O)C(C)(C)[C@@H]5CC[C@]43C)[C@@H]2[C@]1(C)O :: 1.7
C[C@@H]1CC[C@]2(C(=O)O)CC[C@]3(C)C(=CC[C@@H]4[C@@]5(C)C[C@@H](O)[C@@H](O)C(C)(C)[C@@H]5CC[C@]43C)[C@@H]2[C@]1(C)O :: 66.6
C[C@@H]1[C@H]2C3=CC[C@@H]4[C@@]5(C)CC[C@H](O)C(C)(C)[C@@H]5CC[C@@]4(C)[C@]3(C)CC[C@@]2(C)CC[C@H]1C(=O)O :: 69.2
C[C@@H]1CC[C@]2(C(=O)O)CC[C@]3(C)C(=CC[C@@H]4[C@@]5(C)C=C(O)C(=O)C(C)(C)[C@@H]5CC[C@]43C)[C@@H]2[C@]1(C)O :: 6
C[C@H]1[C@H](C)CC[C@]2(C)CC[C@]3(C)C(=CC(=O)[C@@H]4[C@@]5(C)CC[C@@H](O)[C@](C)(C(=O)O)[C@@H]5CC[C@]43C)[C@H]12 :: 8.9
C[C@@H]1CC[C@]2(C(=O)O)CC[C@]3(C)C(=CC[C@@H]4[C@@]5(C)CC[C@H](O)C(C)(C)[C@@H]5[C@H](O)C[C@]43C)[C@@H]2[C@]1(C)O :: 3.2
C[C@H]1[C@H](C)CC[C@]2(C(=O)O)CC[C@]3(C)C(=CC[C@@H]4[C@@]5(C)CC[C@@H](O)C(C)(C)[C@@H]5CC[C@]43C)[C@H]12 :: 8.4
C[C@@H]1CC[C@]2(C(=O)O)CC[C@]3(C)C(=CC[C@@H]4[C@@]5(C)[C@H](O)[C@@H](O)[C@H](O)C(C)(C)[C@@H]5CC[C@]43C)[C@@H]2[C@]1(C)O :: 78.4
C[C@@H]1CC[C@]2(C(=O)O)CC[C@]3(C)C(=CC[C@@H]4[C@@]5(C)[C@H](O)C(=O)[C@H](O)C(C)(C)[C@@H]5CC[C@]43C)[C@@H]2[C@]1(C)O :: 1.9

[a] C[C@H]1[C@H](C)CC[C@]2(C(=O)O)CC[C@]3(C)C(=CC[C@@H]4[C@@]5(C)C[C@@H](O)[C@H](O)C(C)(C)[C@@H]5CC[C@]43C)[C@H]12
[b] C[C@@H]1CC[C@]2(C(=O)O)CC[C@]3(C)C(=CC[C@@H]4[C@@]5(C)CC[C@@H](O)[C@](C)(CO)[C@@H]5CC[C@]43C)[C@@H]2[C@]1(C)O
Q) Parameter check: reported inhibition is higher for which label, a or b ? Answer = label.
A) a
(a: 34.4%, b: 19.9%)

[a] C[C@@H]1CC[C@]2(C(=O)O)CC[C@]3(C)C(=CC[C@@H]4[C@@]5(C)CC[C@H](O)[C@@](C)(CO)[C@@H]5[C@H](O)C[C@]43C)[C@@H]2[C@]1(C)O
[b] C=C(C)[C@@H]1CC[C@]2(C)[C@H](CC=C3[C@@H]4[C@@H](C)[C@H](C)CC[C@]4(C)CC[C@]32C)[C@@]1(C)CCC(=O)O
[c] C[C@@H]1[C@H]2C3=CC[C@@H]4[C@@]5(C)CC[C@@H](O)C(C)(C)[C@@H]5CC[C@@]4(C)[C@]3(C)CC[C@@]2(C)[C@@H](O)C[C@H]1C(=O)O
Q) List these items ordered by inhibition, big to small. Please list each label once, in the requested order.
A) c, b, a
(c: 65.5%, b: 5.5%, a: 0.5%)

meta.source: ChEMBL document CHEMBL5120854
